target: recombinant homotrimeric HA A/Hong Kong/1073/99 H9N2 (Influenza A virus A/Hong Kong/1073/99 (H9N2)); assay: protein microarray, purified IgG, trimeric HA; details: remark: other sources report otherwise
READOUT: Trimeric HA Binding: RLU (RLU)
Express the result in RLU but write the number alone.

TCN-542 (5079_A16) (antibody, V domains shown) VH: QVQLQESGPGLVKPSQTLSLTCTVSGGSISSGNYYWNWVRQHPGKGLEWIGYIYYRGSTFYNPSLKSRVTISIDTSKNQFSLRLSSVTAADTAVYYCAKDTRSSLDNYQYGMDVWGQGTTVTVSS VL: QTVVTQEPSLTVSPGGTVTLTCASSTGAVTSSYFPNWFQQKPGQAPRPLIYSTTIRHSWTPARFSGSLLGGKAALTLSGVQPEDEADYYCLLYSGGDPVAFGGGTKLTVL
588

Query TCN-534 (5249_B02) (antibody, V domains shown) VH: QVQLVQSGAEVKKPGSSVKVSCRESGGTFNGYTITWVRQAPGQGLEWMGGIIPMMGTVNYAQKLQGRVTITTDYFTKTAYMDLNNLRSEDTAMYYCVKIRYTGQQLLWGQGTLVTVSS VL: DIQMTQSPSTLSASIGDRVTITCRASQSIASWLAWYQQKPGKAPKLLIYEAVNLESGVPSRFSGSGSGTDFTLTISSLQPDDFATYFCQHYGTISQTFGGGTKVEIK yields Trimeric HA Binding: RLU of 918

Query TCN-550 (5096_F06) (antibody, V domains shown) VH: QVQLQESGPGLVKPSETLSLTCTVSGASINSHYWSWIRQPPGKGLEWIGYVYYSGSTTYNPSLKSRVTLSVDTSKNQFSLNLSSVTAADTAFYYCARHPYDVLTGSGDWFDPWGQGTLVTVSS VL: SYVLTQAPSVSVAPGQTARITCGGNAIGSKKVHWYQHKAGQAPVLVVYDDTDRPSGIPERFSGSNSWSTATLTINRVEAGDEADYYCQVWDFTIDHVVFGGGTKLTVL yields Trimeric HA Binding: RLU of 413
